MEASURED TARGET: vanilloid receptor 1 (VR1/TRPV1) (Rattus norvegicus, UniProt O35433)
Construct: The spinal column is removed from beheaded rats; from tissue; host or cells: primary cells from rat dorsal root ganglia
Sequence (O35433 whole entry): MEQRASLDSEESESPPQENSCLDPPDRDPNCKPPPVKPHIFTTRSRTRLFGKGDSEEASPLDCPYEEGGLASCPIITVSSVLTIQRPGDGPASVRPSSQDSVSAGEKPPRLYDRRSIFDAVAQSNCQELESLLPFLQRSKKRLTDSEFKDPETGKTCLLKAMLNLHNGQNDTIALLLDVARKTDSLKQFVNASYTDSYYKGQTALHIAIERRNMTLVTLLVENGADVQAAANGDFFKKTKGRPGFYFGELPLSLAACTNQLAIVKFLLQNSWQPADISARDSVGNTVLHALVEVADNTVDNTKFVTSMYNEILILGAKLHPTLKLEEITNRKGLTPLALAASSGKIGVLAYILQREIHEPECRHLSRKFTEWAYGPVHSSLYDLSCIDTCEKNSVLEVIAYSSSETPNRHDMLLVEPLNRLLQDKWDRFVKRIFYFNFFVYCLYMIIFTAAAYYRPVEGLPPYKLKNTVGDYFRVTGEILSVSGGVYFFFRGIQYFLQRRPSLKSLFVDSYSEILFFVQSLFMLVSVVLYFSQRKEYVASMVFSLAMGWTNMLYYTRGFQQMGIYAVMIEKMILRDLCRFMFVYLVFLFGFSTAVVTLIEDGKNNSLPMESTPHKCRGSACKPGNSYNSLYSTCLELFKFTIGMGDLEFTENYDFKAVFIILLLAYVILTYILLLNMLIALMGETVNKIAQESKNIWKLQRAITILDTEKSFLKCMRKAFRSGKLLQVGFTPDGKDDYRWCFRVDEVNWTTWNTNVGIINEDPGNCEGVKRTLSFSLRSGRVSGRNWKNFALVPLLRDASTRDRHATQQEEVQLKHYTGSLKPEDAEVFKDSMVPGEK
PROTOCOL DETAILS: Functional study on vanilloid receptor 1 (VR1/TRPV1), FLIPR Ca2+ assay in rat dorsal root ganglia cells
Assay type: cell-based
PARTICULARS: test compound 10 μM; rat DRG cells; suppression of Ca2+ current after 100 nM capsaicin; read-out: VR1 (rat) (% inhibition compared to 10 μM CP)
inhibition at 10 µM values, listed per item
QUANTITY NAME: inhibition at 10 µM (%)

compound="O=C1c2ccccc2CCCC1(CO)COC(=S)Nc1cccc(C(F)(F)F)c1 (stereo not shown)" assay_value=59.7
compound="O=C(Nc1ccc(F)cc1F)OCC1(CO)CCSc2ccccc2C1=O (stereo not shown)" assay_value=17.1
compound="O=C1c2ccccc2OCCC1(CO)COC(=S)Nc1cccc(C(F)(F)F)c1 (stereo not shown)" assay_value=52.1
compound="O=C1c2ccccc2SCCC1(CO)COC(=S)Nc1ccccc1 (stereo not shown)" assay_value=52.8
compound="O=C1c2ccccc2SCCC1(CO)COC(=S)Nc1cccc(C(F)(F)F)c1 (stereo not shown)" assay_value=46.6
compound=O=C(NC(=O)c1ccccc1)OCC1(COC(=O)NC(=O)c2ccccc2)CCOc2ccccc2C1=O assay_value=32.2
compound="O=C1c2ccccc2SCCC1(CO)COC(=S)Nc1ccc(F)cc1F (stereo not shown)" assay_value=34.6

* * *

Listed next: entries and their corresponding inhibition at 10 µM.
MEASURED TARGET: vanilloid receptor (VR1) (Homo sapiens, UniProt Q8NER1)
Construct: expressed in transfected cells; host or cells: CHO K1 cells (ECACC)
Sequence (Q8NER1 whole entry): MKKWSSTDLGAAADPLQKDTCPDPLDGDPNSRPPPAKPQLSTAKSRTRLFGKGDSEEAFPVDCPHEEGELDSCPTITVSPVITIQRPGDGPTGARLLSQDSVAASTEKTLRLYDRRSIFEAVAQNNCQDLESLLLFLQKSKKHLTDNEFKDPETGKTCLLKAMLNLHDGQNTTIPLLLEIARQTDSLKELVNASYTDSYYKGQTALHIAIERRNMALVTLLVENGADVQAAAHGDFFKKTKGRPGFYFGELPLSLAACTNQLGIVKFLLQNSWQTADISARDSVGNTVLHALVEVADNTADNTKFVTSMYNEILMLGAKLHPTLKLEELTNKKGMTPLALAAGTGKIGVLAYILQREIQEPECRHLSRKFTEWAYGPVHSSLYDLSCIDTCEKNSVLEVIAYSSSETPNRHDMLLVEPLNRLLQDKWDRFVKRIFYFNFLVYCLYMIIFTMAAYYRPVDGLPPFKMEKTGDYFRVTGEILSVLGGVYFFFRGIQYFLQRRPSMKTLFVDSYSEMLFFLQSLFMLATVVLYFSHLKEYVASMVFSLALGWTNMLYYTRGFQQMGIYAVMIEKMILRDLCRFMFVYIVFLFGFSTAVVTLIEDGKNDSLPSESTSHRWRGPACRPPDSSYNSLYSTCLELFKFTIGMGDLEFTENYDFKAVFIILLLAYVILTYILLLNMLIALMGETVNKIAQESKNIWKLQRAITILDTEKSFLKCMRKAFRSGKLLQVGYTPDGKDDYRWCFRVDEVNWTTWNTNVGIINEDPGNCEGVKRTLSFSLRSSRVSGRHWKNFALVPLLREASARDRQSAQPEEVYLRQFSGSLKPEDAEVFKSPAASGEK
PROTOCOL DETAILS: Functional study on vanilloid receptor (VR1), FLIPR Ca2+ assay in VR1-transfected CHO K1 cells
Assay type: cell-based
PARTICULARS: test substance 10 μM; CHO K1 cells transfected with VR1; suppression of Ca2+ current after 100 nM capsaicin; read-out: VR1 (human) (% inhibition compared to 10 μM CP)
QUANTITY NAME: inhibition at 10 µM (%)

compound="O=C(Nc1ccc(F)cc1F)OCC1(CO)CCSc2ccccc2C1=O (stereo not shown)" units_label=% assay_value=21.8
compound="O=C(Nc1ccc(Br)cc1)OCC1CCSc2ccccc2C1=O (stereo not shown)" units_label=% assay_value=53.8
compound=O=C(NC(=O)c1ccccc1)OCC1(COC(=O)NC(=O)c2ccccc2)CCOc2ccccc2C1=O units_label=% assay_value=13.3
compound="O=C1c2ccccc2OCCC1(CO)COC(=S)Nc1cccc(C(F)(F)F)c1 (stereo not shown)" units_label=% assay_value=31.5

* * *

MEASURED TARGET: human CB2 receptor (Homo sapiens, UniProt P34972)
Construct: expressed in transfected cells; host or cells: HEK-293EBNA cells (membranes)
Sequence (P34972 whole entry): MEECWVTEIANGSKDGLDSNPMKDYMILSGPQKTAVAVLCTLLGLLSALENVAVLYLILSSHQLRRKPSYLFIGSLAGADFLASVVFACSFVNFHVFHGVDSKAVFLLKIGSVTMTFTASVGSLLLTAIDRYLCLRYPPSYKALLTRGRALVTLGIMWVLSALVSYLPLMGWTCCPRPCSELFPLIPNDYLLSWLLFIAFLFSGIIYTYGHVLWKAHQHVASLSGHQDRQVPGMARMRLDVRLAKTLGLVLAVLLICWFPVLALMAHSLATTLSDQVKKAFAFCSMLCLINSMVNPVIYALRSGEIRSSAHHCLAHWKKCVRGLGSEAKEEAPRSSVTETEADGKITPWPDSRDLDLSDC
PROTOCOL DETAILS: Affinity for cannabinoid receptor CB2, [3H]-CP 55,940 displacement on HEK-293EBNA membranes
PARTICULARS: 10 μM test substance; 0.33 nM [3H]-CP 55,940; percent inhibition of specific binding
Method: VI. Determination of the Affinity for the Cannabinoid Receptor CB2 (CB2 Receptor): To determine the affinity of the inventive compounds for the cannabinoid receptor, membranes from human recombinant HEK-293EBNA cells were used, which had been transfected stably with the human CB2 receptor. […] The affinity of the inventive compounds for the CB2 receptor is determined by their ability to displace [3]H—CP 55,940 from CB2 receptors in membranes from HEK-293EBNA cells. […]
Quick list: inhibition at 10 µM per entry.
QUANTITY NAME: inhibition at 10 µM (%)

compound="O=C(Nc1ccc(F)cc1F)OCC1(CO)CCSc2ccccc2C1=O (stereo not drawn)" units_label=% assay_value=41
compound="O=C1c2ccccc2SCCC1(CO)COC(=S)Nc1ccccc1 (stereo not drawn)" units_label=% assay_value=28.3
compound="O=C1c2ccccc2OCCC1(CO)COC(=S)Nc1cccc(C(F)(F)F)c1 (stereo not drawn)" units_label=% assay_value=15.6
compound=O=C(NC1CCCCC1)OCC1(COC(=O)NC2CCCCC2)CCCc2ccccc2C1=O units_label=% assay_value=76.2
compound=O=C(Nc1ccc(F)cc1F)OCC1(COC(=O)Nc2ccc(F)cc2F)CCOc2ccccc2C1=O units_label=% assay_value=63.4
compound="O=C(NC1CCCCC1)OCC1(CO)CCSc2ccccc2C1=O (stereo not drawn)" units_label=% assay_value=53.6
compound=O=C(NC(=O)c1ccccc1)OCC1(COC(=O)NC(=O)c2ccccc2)CCOc2ccccc2C1=O units_label=% assay_value=40.3
compound="O=C1c2ccccc2SCCC1(CO)COC(=S)Nc1cccc(C(F)(F)F)c1 (stereo not drawn)" units_label=% assay_value=3.8
compound="O=C(Nc1ccc(Br)cc1)OCC1CCSc2ccccc2C1=O (stereo not drawn)" units_label=% assay_value=36.2
compound=CCCCCNC(=O)OCC1(COC(=O)NCCCCC)CCSc2ccccc2C1=O units_label=% assay_value=61.8
compound=O=C(Nc1ccccc1)OCC1(COC(=O)Nc2ccccc2)CCSc2ccccc2C1=O units_label=% assay_value=74.6
compound="CCCCCNC(=O)OCC1CCSc2ccccc2C1=O (stereo not drawn)" units_label=% assay_value=42.2
